System: 648629-189-R-J1-PDC complex spheroids viability
Assay: Anticancer human tumor 648629-189-R-J1-PDC patient-derived bladder carcinoma cell line growth inhibition [CLK]
Conditions: second compound 0.316 µM; first compound 0.03 µM; active compounds read low
Decide using viability, T/C alone. Strictly below 20%: met. Equal to or above 20%: not met.

>  <Molecule>
C=CC(=O)Nc1cc(Nc2nccc(-c3cn(C)c4ccccc34)n2)c(OC)cc1N(C)CCN(C)C + CNC(=O)c1ccc(Nc2nc(OC3CCCC3)c3c(-c4ccc5nc(C)oc5c4)c[nH]c3n2)c(OC)c1

>  <Class name>
met

$$$$
>  <Molecule>
NC(=O)C(=Cn1cnc(-c2cc(C(F)(F)F)cc(C(F)(F)F)c2)n1)c1cncnc1 + CNC(=O)c1ccc(Nc2nc(OC3CCCC3)c3c(-c4ccc5nc(C)oc5c4)c[nH]c3n2)c(OC)c1

>  <Class name>
met

$$$$
>  <Molecule>
NC(=O)C(=Cn1cnc(-c2cc(C(F)(F)F)cc(C(F)(F)F)c2)n1)c1cncnc1 + CN1CCN(c2cc(C(=O)Nc3cc4cc(-c5cnn(C)c5)ccc4cn3)ccn2)CC1

>  <Class name>
met

$$$$
>  <Molecule>
CC(C)CC(NC(=O)C(Cc1ccccc1)NC(=O)c1cnccn1)B(O)O (stereo unspecified) + CN1CCN(c2cc(C(=O)Nc3cc4cc(-c5cnn(C)c5)ccc4cn3)ccn2)CC1

>  <Class name>
met

$$$$
>  <Molecule>
CC(C)CC(NC(=O)C(Cc1ccccc1)NC(=O)c1cnccn1)B(O)O (stereo unspecified) + CNC(=O)c1ccc(Nc2nc(OC3CCCC3)c3c(-c4ccc5nc(C)oc5c4)c[nH]c3n2)c(OC)c1

>  <Class name>
met

$$$$
>  <Molecule>
C=CC(=O)Nc1cc(Nc2nccc(-c3cn(C)c4ccccc34)n2)c(OC)cc1N(C)CCN(C)C + CN1CCN(c2cc(C(=O)Nc3cc4cc(-c5cnn(C)c5)ccc4cn3)ccn2)CC1

>  <Class name>
not met

$$$$

* * *

System: 648629-189-R-J1-PDC complex spheroids viability
Test: Anticancer human tumor 648629-189-R-J1-PDC cell line growth inhibition [CLK];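 note: drug exposure lasted seven days before viability readout; 100% = DMSO vehicle control wells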
Details: second compound 0.0316 µM; first compound 0.00316 µM; active compounds read low
Entries and their measured viability, T/C follow.
Readout name: viability, T/C (%)

>  <Compound>
Cn1ncnc1[C@H]1c2n[nH]c(=O)c3cc(F)cc(c23)N[C@@H]1c1ccc(F)cc1 + CN1CCN(c2cc(C(=O)Nc3cc4cc(-c5cnn(C)c5)ccc4cn3)ccn2)CC1

>  <Measure unit>
%

>  <Reported result>
107

$$$$
>  <Compound>
CCN1CCN(Cc2ccc(Nc3ncc(F)c(-c4cc(F)c5nc(C)n(C(C)C)c5c4)n3)nc2)CC1 + CNC(=O)c1ccc(Nc2nc(OC3CCCC3)c3c(-c4ccc5nc(C)oc5c4)c[nH]c3n2)c(OC)c1

>  <Measure unit>
%

>  <Reported result>
98.4

$$$$
>  <Compound>
CCN1CCN(Cc2ccc(Nc3ncc(F)c(-c4cc(F)c5nc(C)n(C(C)C)c5c4)n3)nc2)CC1 + CN1CCN(c2cc(C(=O)Nc3cc4cc(-c5cnn(C)c5)ccc4cn3)ccn2)CC1

>  <Measure unit>
%

>  <Reported result>
108

$$$$
>  <Compound>
CCc1c2c(nc3ccc(O)cc13)-c1cc3c(c(=O)n1C2)COC(=O)[C@]3(O)CC + CNC(=O)c1ccc(Nc2nc(OC3CCCC3)c3c(-c4ccc5nc(C)oc5c4)c[nH]c3n2)c(OC)c1

>  <Measure unit>
%

>  <Reported result>
30.3

$$$$
>  <Compound>
COc1c(OCCCN2CCOCC2)ccc2c3n(c(=NC(=O)c4cnc(N)nc4)nc12)CCN3 + CN1CCN(c2cc(C(=O)Nc3cc4cc(-c5cnn(C)c5)ccc4cn3)ccn2)CC1

>  <Measure unit>
%

>  <Reported result>
114

$$$$
